assay: in vivo; conditions: BALB/c nude, mouse, in vivo, iv, total radioactivity, % ID/g Fat
readout: tissue uptake at 72 h
Numeric answer plus unit only.

Take a look at these entries with their results.
compound	valueMeasured
C[C@@H](O)[C@H](NC(=O)[C@@H]1CSSC[C@H](NC(=O)[C@@H](Cc2ccccc2)NC(=O)[C@H](CCCCNC(=O)COCCOCCNC(=O)c2cccc(NC(=O)N[C@@H]3CN(C4CCCCC4)c4ccccc4N(CC(=O)C(C)(C)C)C3=O)c2)NC(=O)CN2CCN(CC(=O)O)CCN(CC(=O)O)CCN(CC(=O)O)CC2)C(=O)N[C@@H](Cc2ccc(O)cc2)C(=O)N[C@H](Cc2c[nH]c3ccccc23)C(=O)N[C@@H](CCCCN)C(=O)N[C@@H]([C@@H](C)O)C(=O)N1)C(=O)O [^177Lu-I-36, metal not drawn]	1.12 %ID/g
C[C@@H](O)[C@H](NC(=O)[C@@H]1CSSC[C@H](NC(=O)[C@@H](Cc2ccccc2)NC(=O)[C@H](CCCCNC(=O)c2cccc(NC(=O)N[C@@H]3CN(C4CCCCC4)c4ccccc4N(CC(=O)C(C)(C)C)C3=O)c2)NC(=O)COCCOCCNC(=O)CN2CCN(CC(=O)O)CCN(CC(=O)O)CCN(CC(=O)O)CC2)C(=O)N[C@@H](Cc2ccc(O)cc2)C(=O)N[C@H](Cc2c[nH]c3ccccc23)C(=O)N[C@@H](CCCCN)C(=O)N[C@@H]([C@@H](C)O)C(=O)N1)C(=O)O [^177Lu-I-35, metal not drawn]	0.41 %ID/g
C[C@@H](O)[C@H](NC(=O)[C@@H]1CSSC[C@H](NC(=O)[C@@H](Cc2ccccc2)NC(=O)COCCOCCNC(=O)COCCOCCNC(=O)[C@H](CCCCNC(=O)c2cccc(NC(=O)N[C@@H]3CN(C4CCCCC4)c4ccccc4N(CC(=O)C(C)(C)C)C3=O)c2)NC(=O)CN2CCN(CC(=O)O)CCN(CC(=O)O)CCN(CC(=O)O)CC2)C(=O)N[C@@H](Cc2ccc(O)cc2)C(=O)N[C@H](Cc2c[nH]c3ccccc23)C(=O)N[C@@H](CCCCN)C(=O)N[C@@H]([C@@H](C)O)C(=O)N1)C(=O)O [Compound 177Lu-I-39, metal not drawn]	0.27 %ID/g

Data request: Please indicate tissue uptake at 72 h recorded for C[C@@H](O)[C@H](NC(=O)[C@@H]1CSSC[C@H](NC(=O)[C@@H](Cc2ccccc2)NC(=O)COCCOCCNC(=O)[C@H](CCCCNC(=O)c2cccc(NC(=O)N[C@@H]3CN(C4CCCCC4)c4ccccc4N(CC(=O)C(C)(C)C)C3=O)c2)NC(=O)CN2CCN(CC(=O)O)CCN(CC(=O)O)CCN(CC(=O)O)CC2)C(=O)N[C@@H](Cc2ccc(O)cc2)C(=O)N[C@H](Cc2c[nH]c3ccccc23)C(=O)N[C@@H](CCCCN)C(=O)N[C@@H]([C@@H](C)O)C(=O)N1)C(=O)O [Compound 177Lu-I-37, metal not drawn]
Data returned: 0.32 %ID/g

---

assay: in vivo; settings: BALB/c nude, mouse, in vivo, iv, total radioactivity, % ID/g Pancreas
readout: tissue uptake at 24 h (%ID/g)
Write it as a number; the unit %ID/g goes unstated.

compound	tissue uptake at 24 h / %ID/g
C[C@@H](O)[C@H](NC(=O)[C@@H]1CSSC[C@H](NC(=O)[C@@H](Cc2ccccc2)NC(=O)COCCOCCNC(=O)[C@H](CCCCNC(=O)c2cccc(NC(=O)N[C@@H]3CN(C4CCCCC4)c4ccccc4N(CC(=O)C(C)(C)C)C3=O)c2)NC(=O)CN2CCN(CC(=O)O)CCN(CC(=O)O)CCN(CC(=O)O)CC2)C(=O)N[C@@H](Cc2ccc(O)cc2)C(=O)N[C@H](Cc2c[nH]c3ccccc23)C(=O)N[C@@H](CCCCN)C(=O)N[C@@H]([C@@H](C)O)C(=O)N1)C(=O)O [Compound 177Lu-I-37, metal not drawn]	0.68
C[C@@H](O)[C@H](NC(=O)[C@@H]1CSSC[C@H](NC(=O)[C@@H](Cc2ccccc2)NC(=O)[C@H](CCCCNC(=O)c2cccc(NC(=O)N[C@@H]3CN(C4CCCCC4)c4ccccc4N(CC(=O)C(C)(C)C)C3=O)c2)NC(=O)COCCOCCNC(=O)CN2CCN(CC(=O)O)CCN(CC(=O)O)CCN(CC(=O)O)CC2)C(=O)N[C@@H](Cc2ccc(O)cc2)C(=O)N[C@H](Cc2c[nH]c3ccccc23)C(=O)N[C@@H](CCCCN)C(=O)N[C@@H]([C@@H](C)O)C(=O)N1)C(=O)O [^177Lu-I-35, metal not drawn]	0.96
C[C@@H](O)[C@H](NC(=O)[C@@H]1CSSC[C@H](NC(=O)[C@@H](Cc2ccccc2)NC(=O)CN2CCN(CC(=O)O)CCN(CC(=O)O)CCN(CC(=O)O)CC2)C(=O)N[C@@H](Cc2ccc(O)cc2)C(=O)N[C@H](Cc2c[nH]c3ccccc23)C(=O)N[C@@H](CCCCN)C(=O)N[C@@H]([C@@H](C)O)C(=O)N1)C(=O)O [^177Lu-C-1, metal not drawn, reference compound]	0.16

Data request: Please indicate tissue uptake at 24 h recorded for C[C@@H](O)[C@H](NC(=O)[C@@H]1CSSC[C@H](NC(=O)[C@@H](Cc2ccccc2)NC(=O)[C@H](CCCCNC(=O)COCCOCCNC(=O)c2cccc(NC(=O)N[C@@H]3CN(C4CCCCC4)c4ccccc4N(CC(=O)C(C)(C)C)C3=O)c2)NC(=O)CN2CCN(CC(=O)O)CCN(CC(=O)O)CCN(CC(=O)O)CC2)C(=O)N[C@@H](Cc2ccc(O)cc2)C(=O)N[C@H](Cc2c[nH]c3ccccc23)C(=O)N[C@@H](CCCCN)C(=O)N[C@@H]([C@@H](C)O)C(=O)N1)C(=O)O [^177Lu-I-36, metal not drawn]
Data returned: 3.34

---

target: CCK2R (Rattus norvegicus, UniProt P30553); construct: host or cells: AR42J cells; experiment: Competitive cell-binding assay on AR42J cells with 125I-C3 as competitive ligand; conditions: based on mean IC50, C-2 = 1.00
Sequence (P30553 whole entry): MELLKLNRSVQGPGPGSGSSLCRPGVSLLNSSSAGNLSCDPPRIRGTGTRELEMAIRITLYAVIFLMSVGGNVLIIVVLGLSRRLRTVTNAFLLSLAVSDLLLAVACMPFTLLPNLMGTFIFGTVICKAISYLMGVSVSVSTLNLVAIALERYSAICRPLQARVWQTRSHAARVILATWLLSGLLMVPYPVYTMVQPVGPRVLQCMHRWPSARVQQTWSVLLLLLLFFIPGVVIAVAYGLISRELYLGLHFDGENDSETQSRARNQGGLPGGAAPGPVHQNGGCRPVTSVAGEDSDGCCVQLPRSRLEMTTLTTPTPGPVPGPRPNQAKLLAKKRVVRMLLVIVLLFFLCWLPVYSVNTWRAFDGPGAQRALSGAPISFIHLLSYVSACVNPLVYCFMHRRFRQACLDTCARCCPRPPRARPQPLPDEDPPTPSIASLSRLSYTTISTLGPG
// values below are reported Relative Binding Affinity CCK2R
No unit in the answer, only the number.

Take a look at these entries with their results.
compound	readout	valueMeasured
C[C@@H](O)[C@@H]1NC(=O)[C@H](CCCCN)NC(=O)[C@@H](Cc2c[nH]c3ccccc23)NC(=O)[C@H](Cc2ccc(O)cc2)NC(=O)[C@@H](NC(=O)[C@@H](Cc2ccccc2)NC(=O)[C@H](CCCCNC(=O)[C@H](CCC(=O)O)NC(=O)c2cccc(NC(=O)N[C@@H]3CN(C4CCCCC4)c4ccccc4N(CC(=O)C(C)(C)C)C3=O)c2)NC(=O)CN2CCN(CC(=O)O)CCN(CC(=O)O)CCN(CC(=O)O)CC2)CSSC[C@@H](C(=O)N[C@H](CO)[C@@H](C)O)NC1=O [Compound I-6, DOTA-K(-E-Z360)-f[CYwKTC]-Thr(ol)]	Relative Binding Affinity CCK2R	19.7
C[C@@H](O)[C@@H]1NC(=O)[C@H](CCCCN)NC(=O)[C@@H](Cc2c[nH]c3ccccc23)NC(=O)[C@H](Cc2ccc(O)cc2)NC(=O)[C@@H](NC(=O)[C@@H](Cc2ccccc2)NC(=O)COCCOCCNC(=O)[C@H](CCCCNC(=O)[C@H](CCC(=O)O)NC(=O)c2cccc(NC(=O)N[C@@H]3CN(C4CCCCC4)c4ccccc4N(CC(=O)C(C)(C)C)C3=O)c2)NC(=O)CN2CCN(CC(=O)O)CCN(CC(=O)O)CCN(CC(=O)O)CC2)CSSC[C@@H](C(=O)N[C@H](CO)[C@@H](C)O)NC1=O	Relative Binding Affinity CCK2R	216
C[C@@H](O)[C@H](NC(=O)[C@@H]1CSSC[C@H](NC(=O)[C@@H](Cc2ccccc2)NC(=O)[C@H](CCCCNC(=O)COCCOCCNC(=O)COCCOCCNC(=O)c2cccc(NC(=O)N[C@@H]3CN(C4CCCCC4)c4ccccc4N(CC(=O)C(C)(C)C)C3=O)c2)NC(=O)CN2CCN(CC(=O)O)CCN(CC(=O)O)CCN(CC(=O)O)CC2)C(=O)N[C@@H](Cc2ccc(O)cc2)C(=O)N[C@H](Cc2c[nH]c3ccccc23)C(=O)N[C@@H](CCCCN)C(=O)N[C@@H]([C@@H](C)O)C(=O)N1)C(=O)O [Compound I-42, DOTA-K(-OEG-OEG-Z360)-f]CYwKTC]T-OH]	Relative Binding Affinity CCK2R	115

Let us examine a further case.
Data request: Please indicate Relative Binding Affinity CCK2R recorded for CCCC[C@H](NC(=O)[C@H](Cc1c[nH]c2ccccc12)NC(=O)CNC(=O)[C@H](Cc1ccc(O)cc1)NC(=O)[C@H](C)NC(=O)[C@@H](CCC(=O)O)NC(=O)[C@@H](CCC(=O)O)NC(=O)[C@@H](CCC(=O)O)NC(=O)[C@@H](CCC(=O)O)NC(=O)[C@@H](CCC(=O)O)NC(=O)[C@@H](CCC(=O)O)NC(=O)CN1CCN(CC(=O)O)CCN(CC(=O)O)CCN(CC(=O)O)CC1)C(=O)N[C@@H](CC(=O)O)C(=O)N[C@@H](Cc1ccccc1)C(N)=O [Compound C-2, DOTA-e-e-e-e-e-e-AYGW-Nle-DF-NH2, reference compound]
Data returned: 1.00
